Assay System: BRD4 BD2 (Homo sapiens, UniProt O60885)
Assay Comment: AlphaScreen binding assay, BRD4 Bromodomain 2
Metric: IC50

Form: compound = `CC(=O)N1c2ccccc2N(Cc2ccncc2)C[C@@H]1C` ; IC50 = > 500 nM

Form: compound = `CC(=O)N1c2ccc(-c3cnn(CCC#N)c3)cc2N(C(=O)Oc2cccnc2)C[C@@H]1C` ; IC50 = 50 to 500 nM

Form: compound = `CC(=O)N1c2ccc(-c3ccc(S(C)(=O)=O)cc3)cc2N(C(=O)OC2CCOCC2)C[C@@H]1C` ; IC50 = 50 to 500 nM

Form: compound = `CC(=O)N1c2ccc(-c3ccc(C(=O)N4CCN(C=O)CC4)cc3)cc2N(C(=O)OC(C)C)C[C@@H]1C` ; IC50 = 50 to 500 nM

Form: compound = `CC(=O)N1c2ccccc2N(C(=O)c2ccc(Cl)cc2)C[C@@H]1C` ; IC50 = > 500 nM

Form: compound = `CC(=O)N1c2ccc(-c3cnn(C4CC4)c3)cc2N(C(=O)Oc2ccccn2)C[C@@H]1C` ; IC50 = < 50 nM

Form: compound = `COc1ccc(OCC(=O)N2C[C@H](C)N(C(C)=O)c3ccccc32)cc1` ; IC50 = > 500 nM

Form: compound = `COC(=O)N1c2ccc(-c3cnn(C4CC4)c3)cc2N(C(=O)OC2CCCC2)C[C@@H]1C` ; IC50 = 50 to 500 nM

---

Assay System: BRD4 BD2 (Homo sapiens)
Assay Comment: AlphaScreen binding assay, BRD4 Bromodomain 2
pIC50: −log10 of the molar value.
Kindly state pIC50 for each of the entries shown.

Form: molecule = `CCS(=O)(=O)c1cccc(-c2ccc3c(c2)N(C(=O)OC2CCOCC2)C[C@H](C)N3C(C)=O)c1` ; pIC50 = 6.30 to 7.30

Form: molecule = `CC(=O)N1c2ccc(-c3cnn(C4CC4)c3)cc2N(c2n[nH]c3ccccc23)C[C@@H]1C` ; pIC50 = 6.30 to 7.30

Form: molecule = `CCCS(=O)(=O)c1ccc(-c2ccc3c(c2)N(C(=O)C2CCC2)C[C@H](C)N3C(C)=O)cc1` ; pIC50 = 6.30 to 7.30

Form: molecule = `CC(=O)N1c2ccc(-c3cnn(C4COC4)c3)cc2N(C(=O)CC(C)C)C[C@@H]1C` ; pIC50 = 6.30 to 7.30

Form: molecule = `CC(=O)N1c2ccc(-c3ccc(N4CCOCC4)nc3)cc2N(C(=O)c2ccco2)C[C@@H]1C` ; pIC50 = 6.30 to 7.30

Form: molecule = `CC(=O)N1c2ccc(-c3cnn(C4CNC4)c3)cc2N(C(=O)C2CC2)C[C@@H]1C` ; pIC50 = > 7.30

Form: molecule = `CC(=O)N1c2ccc(-c3ccc(S(C)(=O)=O)cc3)cc2N(C(=O)c2nccn2C)C[C@@H]1C` ; pIC50 = < 6.30

---

Assay System: BRD4 BD1 (Homo sapiens, UniProt O60885)
Assay Comment: AlphaScreen binding assay, BRD4 Bromodomain 1
pIC50: −log10 of the molar value.
Kindly state pIC50 for each of the entries shown.

Lab entry: BRD4 BD1 (Homo sapiens, UniProt O60885) assay, compound `CC(=O)N1c2ccc(-c3ccc4c(c3)CCCN4S(C)(=O)=O)cc2N(C(=O)C2CC2)C[C@@H]1C` , pIC50 = 6.00 to 7.00

Lab entry: BRD4 BD1 (Homo sapiens, UniProt O60885) assay, compound `CC(=O)N1c2ccc(-c3cccc(S(N)(=O)=O)c3)cc2N(C(=O)C2CCC2)C[C@@H]1C` , pIC50 = 5.00 to 6.00

Lab entry: BRD4 BD1 (Homo sapiens, UniProt O60885) assay, compound `CC(=O)N1c2ccc(-c3ccc(S(C)(=O)=O)cc3)cc2N(C(=O)N(C)C)C[C@@H]1C` , pIC50 = < 5.00

Lab entry: BRD4 BD1 (Homo sapiens, UniProt O60885) assay, compound `CC(=O)N1c2ccc(-c3ccc(S(C)(=O)=O)cc3)cc2N(C(=O)Oc2ccc(C)cc2)C[C@@H]1C` , pIC50 = 6.00 to 7.00

Lab entry: BRD4 BD1 (Homo sapiens, UniProt O60885) assay, compound `CC(=O)N1c2ccc(-c3cnn(CC4CCOCC4)c3)cc2N(C(=O)C2CC2)C[C@@H]1C` , pIC50 = 6.00 to 7.00

Lab entry: BRD4 BD1 (Homo sapiens, UniProt O60885) assay, compound `CC(=O)N1c2ccc(-c3ccc(S(C)(=O)=O)cc3)cc2N(C(=O)OC2CCC(F)(F)CC2)C[C@@H]1C` , pIC50 = 6.00 to 7.00

Lab entry: BRD4 BD1 (Homo sapiens, UniProt O60885) assay, compound `CC(C)OC(=O)N1C[C@H](C)N(C(=O)C2CC2)c2ccc(-c3cnn(C[C@@H]4CCNC4)c3)cc21` , pIC50 = 6.00 to 7.00
